The measurements presented in this section are drawn from the supplement of paper PMC11061612.

system: RCC10RGB (Kidney Carcinoma); assay: combination Emax (second highest fraction inhibited in the dose matrix, 72 h); higher = more inhibition; extreme values may be limits of the assay

[
  {
    "compound": "CC1(C)CCC(CN2CCN(c3ccc(C(=O)NS(=O)(=O)c4ccc(NCC5CCOCC5)c([N+](=O)[O-])c4)c(Oc4cnc5[nH]ccc5c4)c3)CC2)=C(c2ccc(Cl)cc2)C1 [Venetoclax] + CN(C)CCCOc1ccc(-c2ccc3ncc4c(c3c2)n(C2CCOCC2)c(=O)n4C)cn1 [AZD0156] (first compound max 1 µM, 7x7, partner max 1 µM)",
    "combination Emax": 0.174
  },
  {
    "compound": "CC(=O)c1c(C)c2cnc(Nc3ccc(N4CCNCC4)cn3)nc2n(C2CCCC2)c1=O [Palbociclib] + CC1(C)CCC(CN2CCN(c3ccc(C(=O)NS(=O)(=O)c4ccc(NCC5CCOCC5)c([N+](=O)[O-])c4)c(Oc4cnc5[nH]ccc5c4)c3)CC2)=C(c2ccc(Cl)cc2)C1 [Venetoclax] (first compound max 10 µM, 7x7, partner max 1 µM)",
    "combination Emax": 0.476
  }
]

---

test system: HuO9 (Osteosarcoma); assay: Bliss excess, mean over the matrix (fraction); higher = more synergy;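 also: after 72 h of two-drug dosing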
The reader will find reported Bliss excess values listed item by item below.

[
  {
    "compound": "CCN(CCO)CCCOc1ccc2c(Nc3cc(CC(=O)Nc4cccc(F)c4)[nH]n3)ncnc2c1 [AZD2811] + O=C(c1cc(Cc2n[nH]c(=O)c3ccccc23)ccc1F)N1CCN(C(=O)C2CC2)CC1 [Olaparib] (first compound max 1 µM, 7x7, partner max 10 µM)",
    "Bliss excess": 0.0215
  },
  {
    "compound": "C[C@@H](c1ccc2nccn2c1)n1nnc2ncc(-c3cnn(C)c3)nc21 [Savolitinib] + Cc1c2c(nn1C)CSCc1cc(n(C)n1)CSc1cc(c3ccccc3c1)OCCCc1c(C(=O)O)n(C)c3c-2c(Cl)ccc13 [AZD5991] (first compound max 1 µM, 7x7, partner max 1 µM)",
    "Bliss excess": -0.0416
  },
  {
    "compound": "Cc1c2c(nn1C)CSCc1cc(n(C)n1)CSc1cc(c3ccccc3c1)OCCCc1c(C(=O)O)n(C)c3c-2c(Cl)ccc13 [AZD5991] + C[C@@H]1COCCN1C2=NC(=NC(=C2)C3(CC3)[S@](=N)(=O)C)C4=C5C=CNC5=NC=C4 [AZD6738] (first compound max 1 µM, 7x7, partner max 10 µM)",
    "Bliss excess": 0.0259
  },
  {
    "compound": "COc1nnc2ccc(N3CCC(c4ccc(OCCN5CCN(C)C(=O)[C@H]5C)cc4)CC3)nn12 [AZD5153] + CCN(CCO)CCCOc1ccc2c(Nc3cc(CC(=O)Nc4cccc(F)c4)[nH]n3)ncnc2c1 [AZD2811] (first compound max 1 µM, 7x7, partner max 1 µM)",
    "Bliss excess": -0.0983
  },
  {
    "compound": "Cn1cnc2c(F)c(Nc3ccc(Br)cc3Cl)c(C(=O)NOCCO)cc21 [Selumetinib] + C[C@@H]1COCCN1C2=NC(=NC(=C2)C3(CC3)[S@](=N)(=O)C)C4=C5C=CNC5=NC=C4 [AZD6738] (first compound max 10 µM, 7x7, partner max 10 µM)",
    "Bliss excess": 0.0042
  }
]
